Measured values drawn from the supplement of paper PMC3334620 for this set.

Assay System: Ybr033w (UniProt P38073)
Sequence: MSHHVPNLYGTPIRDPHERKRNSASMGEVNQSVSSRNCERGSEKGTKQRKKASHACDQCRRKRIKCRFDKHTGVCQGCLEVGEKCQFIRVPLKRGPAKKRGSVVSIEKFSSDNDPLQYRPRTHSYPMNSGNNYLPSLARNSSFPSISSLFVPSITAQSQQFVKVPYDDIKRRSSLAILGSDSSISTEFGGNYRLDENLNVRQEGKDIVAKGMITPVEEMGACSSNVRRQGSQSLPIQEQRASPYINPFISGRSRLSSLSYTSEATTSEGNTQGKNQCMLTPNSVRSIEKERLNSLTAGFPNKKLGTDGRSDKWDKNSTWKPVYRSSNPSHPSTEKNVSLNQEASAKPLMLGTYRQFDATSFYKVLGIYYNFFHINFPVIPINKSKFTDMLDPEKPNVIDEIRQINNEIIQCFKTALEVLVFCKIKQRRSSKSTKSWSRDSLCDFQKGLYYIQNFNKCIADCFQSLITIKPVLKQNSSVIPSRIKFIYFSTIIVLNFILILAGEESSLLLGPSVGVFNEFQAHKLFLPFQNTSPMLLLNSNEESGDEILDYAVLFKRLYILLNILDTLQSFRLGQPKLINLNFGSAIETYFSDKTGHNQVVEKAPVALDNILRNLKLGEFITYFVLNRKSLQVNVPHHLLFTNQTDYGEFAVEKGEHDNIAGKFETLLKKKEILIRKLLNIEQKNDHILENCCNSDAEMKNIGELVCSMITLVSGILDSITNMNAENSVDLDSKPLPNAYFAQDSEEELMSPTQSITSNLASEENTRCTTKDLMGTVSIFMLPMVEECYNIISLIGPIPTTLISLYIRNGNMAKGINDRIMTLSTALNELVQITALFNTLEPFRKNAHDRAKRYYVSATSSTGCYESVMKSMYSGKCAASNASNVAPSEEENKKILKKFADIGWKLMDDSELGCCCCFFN
Experiment Summary: PBM E-score (8-mer binding enrichment) (E-score (-0.5 to 0.5)); higher = stronger / more preferred TF binding
Measurement Conditions: protein concentration: 200 nM; construct: GST-full length
In all, about 33,000 sequences were measured (“E-score (-0.5 to 0.5)”: median about -0.012, highest 2% from about 0.29 on). Shown is part of a subset that was picked to be rich in the highest values.
Tick criterion met if PBM E-score is 0.1 or greater. Tick criterion not met if PBM E-score is less than 0.1.

Sequence Text	Label Class
ACGGGCTA	criterion not met
ACCTAGCA	criterion not met

Req: Kindly determine if PBM E-score recorded for GCTGCAGA is above or exactly 0.1.
Resp: criterion not met

Req: Tell me whether PBM E-score is at least 0.1 here: CCGGATGA
Resp: criterion met

Req: Check if PBM E-score >= 0.1 (inclusive). Item: AGTTGTTG
Resp: criterion met

* * *

Assay System: Ybr033w (UniProt P38073)
Sequence: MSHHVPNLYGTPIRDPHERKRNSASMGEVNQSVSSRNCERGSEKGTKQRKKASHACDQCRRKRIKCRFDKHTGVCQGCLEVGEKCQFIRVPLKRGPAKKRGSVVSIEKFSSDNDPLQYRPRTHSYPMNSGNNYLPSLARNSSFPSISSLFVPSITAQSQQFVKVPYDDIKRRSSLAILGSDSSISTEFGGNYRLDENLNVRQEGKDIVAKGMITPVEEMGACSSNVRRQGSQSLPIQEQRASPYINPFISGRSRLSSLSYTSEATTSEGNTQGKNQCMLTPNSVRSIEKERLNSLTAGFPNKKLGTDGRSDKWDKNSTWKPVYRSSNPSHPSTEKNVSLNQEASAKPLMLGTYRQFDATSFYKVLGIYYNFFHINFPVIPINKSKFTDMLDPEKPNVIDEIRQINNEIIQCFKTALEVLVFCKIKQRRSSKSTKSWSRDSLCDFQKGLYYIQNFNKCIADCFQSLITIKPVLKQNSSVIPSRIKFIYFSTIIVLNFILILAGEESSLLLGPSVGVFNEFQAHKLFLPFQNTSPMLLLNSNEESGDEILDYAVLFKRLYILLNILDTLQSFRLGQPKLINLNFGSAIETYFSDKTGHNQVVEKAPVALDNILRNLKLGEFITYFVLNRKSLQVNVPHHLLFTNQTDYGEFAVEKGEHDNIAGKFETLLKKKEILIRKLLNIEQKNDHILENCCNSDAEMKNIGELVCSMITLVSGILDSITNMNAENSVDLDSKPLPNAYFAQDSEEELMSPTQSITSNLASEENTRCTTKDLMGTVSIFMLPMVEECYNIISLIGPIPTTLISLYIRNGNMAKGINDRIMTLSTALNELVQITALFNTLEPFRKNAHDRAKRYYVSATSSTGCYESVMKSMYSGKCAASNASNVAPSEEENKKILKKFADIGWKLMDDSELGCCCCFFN
Experiment Summary: PBM E-score (8-mer binding enrichment) (E-score (-0.5 to 0.5)); higher = stronger / more preferred TF binding
Measurement Conditions: protein concentration: 200 nM; construct: GST-full length
In all, about 33,000 sequences were measured (“E-score (-0.5 to 0.5)”: median about -0.012, highest 2% from about 0.29 on). Only a selection was taken, and the highest values are over-represented in it overall.
Reported PBM E-score values for the following sequences.

Req: Field: PBM E-score (Ybr033w (UniProt P38073)). Entry: CCTCCTAC
Resp: -0.107

* * *

Assay System: Ybr033w (UniProt P38073)
Sequence: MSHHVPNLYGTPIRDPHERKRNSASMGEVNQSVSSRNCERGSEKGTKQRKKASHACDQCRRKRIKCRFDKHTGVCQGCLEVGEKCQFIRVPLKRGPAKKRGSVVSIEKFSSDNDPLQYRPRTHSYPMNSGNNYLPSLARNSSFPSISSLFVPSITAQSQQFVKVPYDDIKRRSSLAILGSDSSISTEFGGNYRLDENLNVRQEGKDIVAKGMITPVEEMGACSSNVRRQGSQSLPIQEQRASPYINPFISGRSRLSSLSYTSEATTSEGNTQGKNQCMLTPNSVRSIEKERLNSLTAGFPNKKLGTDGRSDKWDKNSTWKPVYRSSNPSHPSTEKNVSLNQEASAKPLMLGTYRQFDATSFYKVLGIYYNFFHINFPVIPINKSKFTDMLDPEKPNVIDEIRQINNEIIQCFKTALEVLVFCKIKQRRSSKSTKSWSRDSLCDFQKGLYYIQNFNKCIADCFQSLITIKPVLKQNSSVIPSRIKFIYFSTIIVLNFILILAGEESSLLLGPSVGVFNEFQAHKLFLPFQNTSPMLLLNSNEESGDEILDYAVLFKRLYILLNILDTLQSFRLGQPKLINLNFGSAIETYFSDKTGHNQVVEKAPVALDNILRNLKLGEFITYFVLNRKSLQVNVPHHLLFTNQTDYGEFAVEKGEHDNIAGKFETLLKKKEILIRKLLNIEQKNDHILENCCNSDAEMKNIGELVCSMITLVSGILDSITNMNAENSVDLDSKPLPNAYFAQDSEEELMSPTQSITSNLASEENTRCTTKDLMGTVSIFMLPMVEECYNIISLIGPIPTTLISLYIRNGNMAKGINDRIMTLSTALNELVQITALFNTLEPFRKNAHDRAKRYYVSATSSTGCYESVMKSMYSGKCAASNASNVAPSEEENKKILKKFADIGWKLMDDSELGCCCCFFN
Experiment Summary: PBM E-score (8-mer binding enrichment) (E-score (-0.5 to 0.5)); higher = stronger / more preferred TF binding
Measurement Conditions: protein concentration: 200 nM; construct: GST-full length
In all, about 33,000 sequences were measured (“E-score (-0.5 to 0.5)”: median about -0.012, highest 2% from about 0.29 on). Shown is part of a subset that was picked to be rich in the highest values.
Assay Endpoint: PBM E-score

Req: For the sequence shown here, TACTGGCA , give the reported PBM E-score.
Resp: -0.0764

* * *

Here the recorded PBM E-score is given for each entry.
Assay System: Ybr033w (UniProt P38073)
Sequence: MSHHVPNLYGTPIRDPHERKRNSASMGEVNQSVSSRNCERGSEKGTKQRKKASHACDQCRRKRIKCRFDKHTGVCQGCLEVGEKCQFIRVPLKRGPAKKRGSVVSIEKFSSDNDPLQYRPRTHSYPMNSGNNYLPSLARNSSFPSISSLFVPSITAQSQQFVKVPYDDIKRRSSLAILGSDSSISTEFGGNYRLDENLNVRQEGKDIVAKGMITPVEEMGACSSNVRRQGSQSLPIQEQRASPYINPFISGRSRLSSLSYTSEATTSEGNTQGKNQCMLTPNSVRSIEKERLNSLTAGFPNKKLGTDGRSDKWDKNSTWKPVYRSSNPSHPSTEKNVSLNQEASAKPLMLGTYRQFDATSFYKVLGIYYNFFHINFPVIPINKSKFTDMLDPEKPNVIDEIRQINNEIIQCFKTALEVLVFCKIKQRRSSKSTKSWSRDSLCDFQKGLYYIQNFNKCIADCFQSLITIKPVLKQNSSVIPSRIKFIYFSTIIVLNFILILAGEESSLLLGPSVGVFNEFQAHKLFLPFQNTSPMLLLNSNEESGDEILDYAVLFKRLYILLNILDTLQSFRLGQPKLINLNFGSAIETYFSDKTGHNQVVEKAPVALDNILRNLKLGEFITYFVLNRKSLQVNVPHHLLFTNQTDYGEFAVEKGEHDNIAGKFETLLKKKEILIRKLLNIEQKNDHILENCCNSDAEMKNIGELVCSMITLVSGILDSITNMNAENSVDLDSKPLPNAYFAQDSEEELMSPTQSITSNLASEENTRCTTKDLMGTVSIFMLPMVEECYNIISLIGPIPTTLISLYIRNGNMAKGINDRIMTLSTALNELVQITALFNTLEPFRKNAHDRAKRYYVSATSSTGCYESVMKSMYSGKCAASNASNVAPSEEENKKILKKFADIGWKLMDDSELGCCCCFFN
Experiment Summary: PBM E-score (8-mer binding enrichment) (E-score (-0.5 to 0.5)); higher = stronger / more preferred TF binding
Measurement Conditions: protein concentration: 200 nM; construct: GST-full length
The full ranking holds about 33,000 sequences; the median of “E-score (-0.5 to 0.5)” is about -0.012, and the highest 2% start at about 0.29. The sample holds the highest values, similar sequences and a random draw of the others, so the mix is not that of the screen.
Reply with the value as a number alone.

Sequence Text	Assay Endpoint	Measured Value
CCACCCTC	PBM E-score	-0.0745
CCCATCCA	PBM E-score	-0.158
GACATTAA	PBM E-score	0.166
CACTTTAG	PBM E-score	0.112
GTAATTTA	PBM E-score	0.218

Req: Entry TACATTAA : reported PBM E-score = ?
Resp: 0.345

Req: Reported PBM E-score, sequence GTTCGGAA : ____
Resp: 0.316

Req: Given the entry TATATTAA , report its measured PBM E-score.
Resp: 0.324

Req: Sample CATATTCA — what was its PBM E-score?
Resp: 0.0595

Req: Can you share its PBM E-score? I mean this sequence: ATAATTTC
Resp: 0.314

Req: Quick one: PBM E-score of ATTCGGAA ?
Resp: 0.269

Req: // query PBM E-score value for entry GTAGGACA
Resp: 0.012

Req: // query PBM E-score value for entry AATAGTAA
Resp: 0.239

Req: Given the sequence AATAGTAT , what is its reported PBM E-score?
Resp: 0.293

Req: PBM E-score for ATTGTGGA ?
Resp: 0.153

Req: Any idea what its PBM E-score is? The sequence is CACTCGCA
Resp: -0.00609

Req: Entry under review: ACCACCGC . Reported PBM E-score?
Resp: -0.197

Req: Tell me the measured PBM E-score of GGGACCCC , please.
Resp: -0.33

Req: # get_value(readout='PBM E-score', item= ACAAAGTA )
Resp: 0.3

Req: Bench note: what PBM E-score did AATAGTGG show?
Resp: 0.0387

Req: // PBM E-score lookup, key: ACCAATAA
Resp: 0.107

Req: Which value of PBM E-score has been reported for CTTCGGAA in the records?
Resp: 0.243
